For each record, write down the corresponding protein stability index.
B1: SNAP91 (parent)
chain: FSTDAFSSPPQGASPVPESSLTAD

# Variants of: B1
# Assay: protein stability index of a GFP-peptide fusion (GPS, HEK-293T) (PSI 1-6); higher = more stable;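 note: lentivirally expressed fusions sorted by FACS into six bins by GFP to DsRed ratio, PSI derived from sequencing read proportions per bin multiplied by bin number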
# Particulars: c terminus: a fixed tail appended
Answer field: number only, no words.

IN: Kindly indicate its recorded protein stability index. Item: G12V
OUT: 2.92

IN: Kindly indicate its recorded protein stability index. Item: A23F
OUT: 3.01

IN: Kindly indicate its recorded protein stability index. Item: T22N
OUT: 3.09

IN: Kindly indicate its recorded protein stability index. Item: P17I
OUT: 3.04

IN: Kindly indicate its recorded protein stability index. Item: S20G
OUT: 3.04
